target: LRRK2 G2019S enzyme (Homo sapiens, UniProt Q5S007, G2019S); assay: LRRK2 G2019S TR-FRET biochemical assay (Biological Example 1); details: 134 μM ATP, 5 nM LRRK2, LRRKtide substrate
Sequence (Q5S007 whole entry G2019S): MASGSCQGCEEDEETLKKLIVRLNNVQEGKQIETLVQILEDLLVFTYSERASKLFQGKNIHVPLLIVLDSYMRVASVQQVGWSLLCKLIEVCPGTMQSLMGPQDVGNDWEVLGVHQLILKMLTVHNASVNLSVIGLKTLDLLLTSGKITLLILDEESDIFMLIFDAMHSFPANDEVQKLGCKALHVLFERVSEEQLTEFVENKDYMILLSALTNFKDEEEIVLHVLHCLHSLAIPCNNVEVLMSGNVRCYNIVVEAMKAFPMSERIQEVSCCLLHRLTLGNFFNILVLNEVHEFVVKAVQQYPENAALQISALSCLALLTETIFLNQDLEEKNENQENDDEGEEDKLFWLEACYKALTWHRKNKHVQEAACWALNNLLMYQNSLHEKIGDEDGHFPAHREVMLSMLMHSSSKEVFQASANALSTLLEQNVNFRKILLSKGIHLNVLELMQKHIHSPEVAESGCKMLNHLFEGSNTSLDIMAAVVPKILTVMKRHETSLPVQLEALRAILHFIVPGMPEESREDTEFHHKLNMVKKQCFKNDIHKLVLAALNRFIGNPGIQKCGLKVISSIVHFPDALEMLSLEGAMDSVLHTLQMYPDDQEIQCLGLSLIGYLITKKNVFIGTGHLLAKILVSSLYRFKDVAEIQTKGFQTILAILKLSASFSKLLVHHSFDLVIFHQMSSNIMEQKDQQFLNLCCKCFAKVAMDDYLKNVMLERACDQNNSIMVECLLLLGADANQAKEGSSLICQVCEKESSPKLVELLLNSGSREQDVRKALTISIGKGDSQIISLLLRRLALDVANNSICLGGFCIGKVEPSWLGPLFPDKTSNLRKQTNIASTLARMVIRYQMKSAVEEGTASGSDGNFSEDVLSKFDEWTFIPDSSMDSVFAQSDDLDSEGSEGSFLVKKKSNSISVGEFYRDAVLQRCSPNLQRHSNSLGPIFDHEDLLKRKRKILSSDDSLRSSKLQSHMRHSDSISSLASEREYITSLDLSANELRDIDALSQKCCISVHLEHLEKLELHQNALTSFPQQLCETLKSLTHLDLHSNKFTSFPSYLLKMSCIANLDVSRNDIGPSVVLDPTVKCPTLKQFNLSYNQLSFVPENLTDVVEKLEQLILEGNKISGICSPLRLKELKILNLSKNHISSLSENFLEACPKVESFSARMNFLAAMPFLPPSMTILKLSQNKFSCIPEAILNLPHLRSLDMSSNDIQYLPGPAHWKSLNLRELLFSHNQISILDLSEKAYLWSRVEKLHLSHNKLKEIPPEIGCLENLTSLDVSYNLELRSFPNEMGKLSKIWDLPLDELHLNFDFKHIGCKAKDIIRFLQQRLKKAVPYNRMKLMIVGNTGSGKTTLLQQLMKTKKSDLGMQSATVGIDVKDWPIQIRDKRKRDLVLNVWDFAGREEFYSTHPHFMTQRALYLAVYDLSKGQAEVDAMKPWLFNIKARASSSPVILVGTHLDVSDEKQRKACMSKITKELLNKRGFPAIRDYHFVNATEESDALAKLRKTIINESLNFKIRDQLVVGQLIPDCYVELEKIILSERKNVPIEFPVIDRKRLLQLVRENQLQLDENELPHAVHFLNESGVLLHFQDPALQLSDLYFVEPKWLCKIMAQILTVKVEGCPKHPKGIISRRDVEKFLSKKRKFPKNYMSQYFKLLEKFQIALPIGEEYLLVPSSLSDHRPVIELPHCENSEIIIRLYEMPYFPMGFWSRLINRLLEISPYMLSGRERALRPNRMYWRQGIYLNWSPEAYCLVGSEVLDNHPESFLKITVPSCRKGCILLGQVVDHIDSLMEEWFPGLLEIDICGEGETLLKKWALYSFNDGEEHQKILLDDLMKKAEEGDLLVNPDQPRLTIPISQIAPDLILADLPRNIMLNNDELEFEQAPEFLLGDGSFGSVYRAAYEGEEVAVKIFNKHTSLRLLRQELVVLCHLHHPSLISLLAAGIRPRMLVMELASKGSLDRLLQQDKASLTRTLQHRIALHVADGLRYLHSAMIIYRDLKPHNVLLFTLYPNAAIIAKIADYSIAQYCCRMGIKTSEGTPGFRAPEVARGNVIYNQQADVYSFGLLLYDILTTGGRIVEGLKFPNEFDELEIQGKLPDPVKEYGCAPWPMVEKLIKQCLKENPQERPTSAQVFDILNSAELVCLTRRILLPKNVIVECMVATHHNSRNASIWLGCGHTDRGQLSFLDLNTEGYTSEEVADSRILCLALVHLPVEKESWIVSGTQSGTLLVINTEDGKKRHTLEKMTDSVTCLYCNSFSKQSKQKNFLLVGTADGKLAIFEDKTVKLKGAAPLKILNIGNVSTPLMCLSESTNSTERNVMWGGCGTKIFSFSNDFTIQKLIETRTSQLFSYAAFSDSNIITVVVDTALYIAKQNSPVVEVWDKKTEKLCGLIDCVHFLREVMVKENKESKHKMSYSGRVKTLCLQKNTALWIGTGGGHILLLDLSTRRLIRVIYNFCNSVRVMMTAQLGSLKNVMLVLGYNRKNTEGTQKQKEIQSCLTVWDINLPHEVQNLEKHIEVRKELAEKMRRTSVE
EXPERIMENTAL READOUT: pIC50
# pIC50 is unitless: minus log10 of the molar concentration; print number only

Previously resolved entries follow.
>  <MOLECULE>
CCNc1nc(Nc2cc([C@H]3C[C@H]3C(N)=O)nn2C2CC2)ncc1C(F)(F)F [Comparative Example A, reference compound]

>  <ENDPOINT RESULT>
8.85

$$$$
>  <MOLECULE>
Cc1nn(C2C[C@]2(C)C(N)=O)cc1Nc1ncc(C(F)(F)F)c(NC2(C)CC2)n1 (single isomer, unassigned)

>  <ENDPOINT RESULT>
8.83

$$$$

Shifting focus to the molecule that follows.
Record CCNc1nc(Nc2cn([C@H]3C[C@H]3C(N)=O)nc2C2CC2)ncc1C(F)(F)F (single isomer, unassigned) . Reported pIC50: 8.83

---

Quick reference for efflux ratio at 1 μM among some compounds
target: MDR1 (P-glycoprotein) (Homo sapiens, UniProt P08183); construct: expressed in transfected cells; host or cells: MDR1-MDCK cells; assay: MDR1-MDCK permeability / efflux (Biological Example 3); format: in vitro ADME; details: dog, MDR1-MDCK cells, pH 7.4
Sequence (P08183 whole entry): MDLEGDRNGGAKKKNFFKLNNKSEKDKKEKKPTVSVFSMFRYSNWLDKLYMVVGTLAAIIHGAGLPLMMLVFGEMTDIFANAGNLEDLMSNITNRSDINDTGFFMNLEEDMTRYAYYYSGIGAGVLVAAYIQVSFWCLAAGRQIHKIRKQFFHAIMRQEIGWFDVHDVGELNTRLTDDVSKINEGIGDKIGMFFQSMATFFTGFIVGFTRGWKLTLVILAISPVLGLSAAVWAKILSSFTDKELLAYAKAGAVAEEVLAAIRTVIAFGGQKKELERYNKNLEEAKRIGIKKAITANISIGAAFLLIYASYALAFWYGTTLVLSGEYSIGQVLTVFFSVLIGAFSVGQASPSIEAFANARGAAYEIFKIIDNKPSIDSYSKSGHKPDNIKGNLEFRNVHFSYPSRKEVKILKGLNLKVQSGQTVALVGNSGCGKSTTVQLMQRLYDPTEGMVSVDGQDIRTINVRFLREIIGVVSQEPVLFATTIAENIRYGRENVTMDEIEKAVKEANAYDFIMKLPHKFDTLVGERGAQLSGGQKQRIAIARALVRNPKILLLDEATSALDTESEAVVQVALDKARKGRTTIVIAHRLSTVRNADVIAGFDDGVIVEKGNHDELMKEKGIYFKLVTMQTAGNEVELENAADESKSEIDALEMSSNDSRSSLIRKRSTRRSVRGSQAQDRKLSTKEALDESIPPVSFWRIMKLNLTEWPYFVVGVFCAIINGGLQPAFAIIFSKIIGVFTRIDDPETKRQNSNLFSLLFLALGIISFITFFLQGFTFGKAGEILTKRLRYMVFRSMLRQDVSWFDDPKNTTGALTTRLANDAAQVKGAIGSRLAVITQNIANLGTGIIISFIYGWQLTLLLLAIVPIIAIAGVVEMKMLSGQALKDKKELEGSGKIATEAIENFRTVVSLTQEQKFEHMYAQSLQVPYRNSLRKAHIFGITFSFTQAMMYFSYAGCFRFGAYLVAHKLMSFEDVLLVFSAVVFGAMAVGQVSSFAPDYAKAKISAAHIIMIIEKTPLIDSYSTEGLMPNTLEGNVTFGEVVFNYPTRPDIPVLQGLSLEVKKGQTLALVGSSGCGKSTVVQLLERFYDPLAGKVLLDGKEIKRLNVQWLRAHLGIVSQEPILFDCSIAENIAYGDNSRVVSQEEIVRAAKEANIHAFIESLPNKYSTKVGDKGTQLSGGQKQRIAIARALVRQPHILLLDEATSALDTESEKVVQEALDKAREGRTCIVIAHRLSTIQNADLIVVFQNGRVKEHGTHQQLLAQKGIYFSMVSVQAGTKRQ
Form rule: numeric answer, no unit written next to it.

>  <COMPOUND>
CCNc1nc(Nc2cc([C@H]3C[C@H]3C(N)=O)nn2C2CC2)ncc1C(F)(F)F [Comparative Example A, reference compound]

>  <efflux ratio at 1 μM>
144

$$$$

response.value for CCNc1nc(Nc2cn([C@H]3C[C@H]3C(N)=O)nc2C2CC2)ncc1C(F)(F)F (single isomer, unassigned) (field: efflux ratio at 1 μM) = 110
